Items are presented alongside their recorded LD50.
Assay: rat acute oral toxicity
Conditions: in vivo
// return numeric value only (unit: mg/kg, not printed)

COc1ccccc1[N+](=O)[O-]: 740

Query LD50 for O=C(O)c1cc2ccccc2cc1O
809

Please give the documented LD50 of CCOP(=S)(OCC)Oc1cc(Cl)c(SC)cc1Cl
9.1

Answer with the recorded LD50 for the compound listed here: CCNCC
540

---

Test: GHS categories as the set defines them, by LD50: 1 up to 5, 2 up to 50, 3 up to 300, 4 up to 2000, 5 above 2000 mg/kg
Conditions: rat; in vivo; po
Entries and their measured GHS category follow.

Illustrative cases are given below, each with its answer.
Nc1ccc2oc(=O)[nH]c2c1: 4
CCCOc1ccc(-c2ccc(C#N)cc2)cc1: 5
OC1C(Cl)(Cl)C(=C(Cl)Cl)C2(OC2Cl)C1(Cl)Cl (stereo not drawn): 4
C=CCCCCCCCCC(=O)OCC: 5
CC1CC(OC(=O)C(C)(C)Oc2cccc(C(F)(F)F)c2)CC(C)(C)C1 (stereo not drawn): 5

Given FC(F)(F)c1cccc(N2CCc3ccccc3C2c2ccccc2)c1 (stereo not drawn) , respond with its GHS category.
4

Retrieve GHS category measured for CNCC(O)CO (stereo not drawn) and print it.
5

Specify GHS category for NCCCC(N)(C(=O)O)C(F)F (stereo not drawn) and stop.
5
